Values were extracted from a melting point compilation (Tetko et al.).

Documented melting point across a set of compounds

| compound | melting point |
| --- | --- |
| Clc1ccc(-c2ccccc2)nn1 | 157 to 159 °C |
| CS(=O)(=O)CC(=O)c1ccccc1F | 77 to 79 °C |
| O=C(O)c1cc(-c2ccccc2)nc2onc(C3CC3)c12 | 199 to 201 °C |
| CCc1ccc(C(C)=CC(=O)O)cc1 | 104 to 106 °C |
| CC(C(=O)O)N1CCCCC1=O (stereo not drawn) | 134 to 136 °C |
| Cc1cc(C)cc(C(=O)N2CCCC(C(=O)O)C2)c1 (stereo not drawn) | 188 to 190 °C |
| O=C(O)C1CCCN(C(=O)N2CCc3sccc3C2)C1 (stereo not drawn) | 66 to 68 °C |
| NC(=S)C1CCCC1 | 84 to 86 °C |
| O=C(O)c1cc2c(cc1[N+](=O)[O-])OCCO2 | 221 to 223 °C |
| COC(=O)c1nc(Cl)ccc1Cl | 53 to 55 °C |
| O=C(O)c1nn(-c2ccccc2)c2c1CCCCC2 | 171 to 173 °C |
| O=C(O)CCc1nc2ccccc2s1 | 97 to 99 °C |
| O=C(O)c1ccc2c(=O)n(-c3ccccc3F)c(=O)[nH]c2c1 | 343 to 345 °C |
